- Test system: PPARg DBDmut IVT, anti-PPARg (DBD mutation: PPARg1 K132A/R137A, NR concentration 270 nM)
- experiment description: PBM binding z-score (relative to random genomic background probes); higher = stronger binding; sequences stand for … in GC…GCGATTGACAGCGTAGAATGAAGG
A collection of sequences and their measured PBM binding z-score

| residues | target | PBM binding z-score |
| --- | --- | --- |
| TCTTGTAGATCATCAGGTTAAGAAAGCTGGCCAA | PPARg DBDmut IVT, anti-PPARg (DBD mutation: PPARg1 K132A/R137A, NR concentration 270 nM) | 0.736 |
| GTACCAGGGTGAATAGGTCGTTGATGAGTAGGCG | PPARg DBDmut IVT, anti-PPARg (DBD mutation: PPARg1 K132A/R137A, NR concentration 270 nM) | -0.469 |
| CAAACTAGGTCTAAGGTCAAAGTCGAGCCAACCA | PPARg DBDmut IVT, anti-PPARg (DBD mutation: PPARg1 K132A/R137A, NR concentration 270 nM) | 0.848 |

----------
- System: RARa homodimer (NR concentration 270 nM)
- experiment description: PBM binding z-score (relative to random genomic background probes); higher = stronger binding; sequences stand for … in GC…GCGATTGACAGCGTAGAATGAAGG
satisfied means recorded PBM binding z-score is 0.02 or above; not satisfied means it is below 0.02.

| residues | target | answer label |
| --- | --- | --- |
| TGTCAAAGTTCAAAGGTATCGTAAGTATCCACAC | RARa homodimer (NR concentration 270 nM) | satisfied |
| ATCGAAATGTCGAGGTGAGTATAGAGAAAGGGAA | RARa homodimer (NR concentration 270 nM) | not satisfied |
| ATCCCTAGGTAAAGTTCAGTGAAAGATCGATAGA | RARa homodimer (NR concentration 270 nM) | satisfied |
| TCTTGTGGATCAAGCAGGTTAAGAAAGCCTGAGT | RARa homodimer (NR concentration 270 nM) | not satisfied |
| ATACGAAGGTGATCGTGAGGTCGTTGATACTAAC | RARa homodimer (NR concentration 270 nM) | satisfied |
| TCTTGTAGATTAAGCAGGTTAAGAAAGCCTGAGT | RARa homodimer (NR concentration 270 nM) | satisfied |
| TCTAGCAGCCCAGAGGGTCACTCAAGAGGTACGG | RARa homodimer (NR concentration 270 nM) | not satisfied |
| CCTGCTAGGTCTTGGTCAGCTAATCTACAGTATG | RARa homodimer (NR concentration 270 nM) | not satisfied |
| GCAGACAGGTGAAACGCAGCTAACTCAGGGTGGC | RARa homodimer (NR concentration 270 nM) | not satisfied |

----------
- Test system: PXR:RXRa (NR concentration 270 nM, RXRa partner concentration 90 nM)
- experiment description: PBM binding z-score (relative to random genomic background probes); higher = stronger binding; sequences stand for … in GC…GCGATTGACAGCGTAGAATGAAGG
A collection of sequences and their measured PBM binding z-score
observation type: PBM binding z-score

| residues | target | observation type | quantitative result |
| --- | --- | --- | --- |
| CCTACTGCGCCACGAAAGGTCATTGATTCAGTGA | PXR:RXRa (NR concentration 270 nM, RXRa partner concentration 90 nM) | PBM binding z-score | 5.41 |
| GCTGCTAGGTCAACTGATGGTCAGCGAAAGCTCG | PXR:RXRa (NR concentration 270 nM, RXRa partner concentration 90 nM) | PBM binding z-score | 1.7 |
| ATCGAAAGGTCGAAGGTGAGTATGCCCACCCGAA | PXR:RXRa (NR concentration 270 nM, RXRa partner concentration 90 nM) | PBM binding z-score | 3.12 |
| TAGCCTAGGTCATGGTCCAGTATACCACGCGAAC | PXR:RXRa (NR concentration 270 nM, RXRa partner concentration 90 nM) | PBM binding z-score | 1.64 |
| GGAACGTGGGCAAAGTTGATAGCATCTGTCGACG | PXR:RXRa (NR concentration 270 nM, RXRa partner concentration 90 nM) | PBM binding z-score | -0.428 |
| CCGACTGTGGCATAAGGTTACCATAAGCCAGCCC | PXR:RXRa (NR concentration 270 nM, RXRa partner concentration 90 nM) | PBM binding z-score | 0.365 |
| TCTTGTAGATCAGCAGGTTAAGAAGGCTGGCCAA | PXR:RXRa (NR concentration 270 nM, RXRa partner concentration 90 nM) | PBM binding z-score | 0.183 |
| ACTAGCAGGCCCAGTTTGGGTCACTCAAACAAAG | PXR:RXRa (NR concentration 270 nM, RXRa partner concentration 90 nM) | PBM binding z-score | 0.133 |
| CCTTACGGGTCTCTGACAGGTTATAGCATTTGGA | PXR:RXRa (NR concentration 270 nM, RXRa partner concentration 90 nM) | PBM binding z-score | -0.13 |
| CCAACTAGGTCACAGAGGTCAAAGTCCGTGCGTA | PXR:RXRa (NR concentration 270 nM, RXRa partner concentration 90 nM) | PBM binding z-score | 6.64 |
| AGTCAAAGTCCATCTAGGTAACGTAAGATATGCT | PXR:RXRa (NR concentration 270 nM, RXRa partner concentration 90 nM) | PBM binding z-score | -0.246 |
| AGAACGAGGGCACGCTGAGTTTATAGCAGAGTAG | PXR:RXRa (NR concentration 270 nM, RXRa partner concentration 90 nM) | PBM binding z-score | 3.96 |
| CGAACGAGGGCATGAGTTAATAGCAAATGCCGAT | PXR:RXRa (NR concentration 270 nM, RXRa partner concentration 90 nM) | PBM binding z-score | 0.548 |
| CGAACGAGGGCATGCGTTGATAGCAAATGCCGAT | PXR:RXRa (NR concentration 270 nM, RXRa partner concentration 90 nM) | PBM binding z-score | 0.344 |
| ATCTCTAGGTAACCTAGTTCAGTGAATGCCGAAC | PXR:RXRa (NR concentration 270 nM, RXRa partner concentration 90 nM) | PBM binding z-score | 1.02 |
| TCTTGTAAATCAAAGGTTAAGAAAGCCGAAGCCT | PXR:RXRa (NR concentration 270 nM, RXRa partner concentration 90 nM) | PBM binding z-score | 1.42 |
| CCTTTCGGGTCACTCCAGGTTATAGCATCGGAGT | PXR:RXRa (NR concentration 270 nM, RXRa partner concentration 90 nM) | PBM binding z-score | 4.94 |
| TCCAGTAGGTTAGTCGGGGCATTCAGCCAACATA | PXR:RXRa (NR concentration 270 nM, RXRa partner concentration 90 nM) | PBM binding z-score | 0.439 |
| GGAACGAGGGCATTCGAGTTGACAGCATGGCGAT | PXR:RXRa (NR concentration 270 nM, RXRa partner concentration 90 nM) | PBM binding z-score | 3.85 |
| CCTAGTTGGTCATGAGGTCACACACCGGATATGA | PXR:RXRa (NR concentration 270 nM, RXRa partner concentration 90 nM) | PBM binding z-score | 5.34 |
| TCTCGGAGGACACGAAAGGTCGGAGCTCGACATC | PXR:RXRa (NR concentration 270 nM, RXRa partner concentration 90 nM) | PBM binding z-score | 1.38 |
| GCATATAGGTAATACAAGGTGATAGTCCGATTGT | PXR:RXRa (NR concentration 270 nM, RXRa partner concentration 90 nM) | PBM binding z-score | 0.0575 |
| TCATATAGGTAAACGTGAAAGTCGAACGATATGA | PXR:RXRa (NR concentration 270 nM, RXRa partner concentration 90 nM) | PBM binding z-score | 0.122 |
| CCTACTGGGCGAAAGGTCATTGATTCCAATGCTC | PXR:RXRa (NR concentration 270 nM, RXRa partner concentration 90 nM) | PBM binding z-score | 4.98 |
